Experiment: Oral bioavailability in rat
Format: ADME, organism-based
Details: in vivo
measured-endpoint: bioavailability (%)

Consider the reported bioavailability for these molecules:
Lab book: bioavailability of Nc1nc2cc(C[C@@H]3CC[C@@]4(O)[C@@H]3O[C@@H](n3ccc5c(N)ncnc53)[C@@H]4O)ccc2cc1F noted as 28

Lab book: bioavailability of Cc1ncnc2c1ccn2[C@@H]1O[C@@H]2[C@@H](Oc3ccc4cc(Br)c(N)nc4c3)CC[C@]2(O)[C@H]1O noted as 42

Lab book: bioavailability of CNc1ncnc2c1ccn2[C@@H]1O[C@@H]2[C@H](Cc3ccc4cc(Br)c(N)nc4c3)CC[C@]2(O)[C@H]1O noted as 20

(A) Nc1nc2cc(C[C@@H]3CC[C@@]4(O)[C@@H]3O[C@@H](n3ccc5c(N)ncnc53)[C@@H]4O)ccc2cc1Br
(B) Nc1nc2cc(C[C@@H]3CC[C@@]4(O)[C@@H]3O[C@@H](n3ccc5c(N)ncnc53)[C@@H]4O)cc(F)c2cc1F
(C) CNc1ncnc2c1ccn2[C@@H]1O[C@@H]2[C@@H](Oc3ccc4cc(Br)c(N)nc4c3)CC[C@]2(O)[C@H]1O
(D) Cc1ncnc2c1ccn2[C@@H]1O[C@@H]2[C@H](Cc3ccc4cc(Br)c(N)nc4c3)CC[C@]2(O)[C@H]1O
(E) Nc1nc2cc(O[C@H]3CC[C@@]4(O)[C@@H]3O[C@@H](n3ccc5c(N)ncnc53)[C@@H]4O)ccc2cc1Cl
Q: Let's sort these by bioavailability, smallest first. Go ahead? Give the labels in the order specified.
A: E, A, B, D, C
(E: 2%, A: 10%, B: 29%, D: 46%, C: 68%)

---

Assay: Unbound volume of distribution in rat
Assay type: ADME
Conditions: in vivo
measured-endpoint: Vdu (L/kg)

Lab book: Vdu of Cc1ncnc2c1ccn2[C@@H]1C[C@@H]2[C@H](Cc3ccc4cc(F)c(N)nc4c3)CC[C@]2(O)[C@H]1O noted as 33

Lab book: Vdu of Cc1ncnc2c1ccn2[C@@H]1O[C@@H]2[C@H](Cc3ccc4cc(Br)c(N)nc4c3)CC[C@]2(O)[C@H]1O noted as 148

Lab book: Vdu of Nc1nc2cc(O[C@H]3CC[C@@]4(O)[C@@H]3O[C@@H](n3ccc5c(N)ncnc53)[C@@H]4O)ccc2cc1F noted as 11

Lab book: Vdu of Cc1nc(N)c2ccn([C@@H]3O[C@@H]4[C@H](Cc5ccc6cc(Br)c(N)nc6c5)CC[C@]4(O)[C@H]3O)c2n1 noted as 116

Lab book: Vdu of Cc1ncnc2c1ccn2[C@@H]1O[C@@H]2[C@H](Cc3ccc4cc(Cl)c(N)nc4c3)CC[C@]2(O)[C@H]1O noted as 43

Lab book: Vdu of Cc1cn([C@@H]2C[C@@H]3[C@H](Cc4ccc5cc(F)c(N)nc5c4)CC[C@]3(O)[C@H]2O)c2ncnc(N)c12 noted as 50

Lab book: Vdu of CNc1ncnc2c1ccn2[C@@H]1O[C@@H]2[C@H](Cc3ccc4cc(Br)c(N)nc4c3)CC[C@]2(O)[C@H]1O noted as 52

Lab book: Vdu of Nc1nc2cc(O[C@H]3CC[C@@]4(O)[C@@H]3O[C@@H](n3ccc5c(N)ncnc53)[C@@H]4O)ccc2cc1Br noted as 28

Lab book: Vdu of Nc1nc2cc(C[C@@H]3CC[C@@]4(O)[C@@H]3O[C@@H](n3ccc5c(N)ncnc53)[C@@H]4O)cc(F)c2cc1F noted as 54

Lab book: Vdu of Nc1nc2cc(O[C@H]3CC[C@@]4(O)[C@@H]3O[C@@H](n3ccc5c(N)ncnc53)[C@@H]4O)ccc2cc1Cl noted as 34

(I) Nc1nc2cc(C[C@@H]3CC[C@@]4(O)[C@@H]3O[C@@H](n3cc(F)c5c(N)ncnc53)[C@@H]4O)ccc2cc1F
(II) CNc1ncnc2c1ccn2[C@@H]1O[C@@H]2[C@@H](Oc3ccc4cc(Br)c(N)nc4c3)CC[C@]2(O)[C@H]1O
(III) Nc1nc2cc(C[C@@H]3CC[C@@]4(O)[C@@H]3C[C@@H](n3cc(F)c5c(N)ncnc53)[C@@H]4O)cc(F)c2cc1F
(IV) Cc1ncnc2c1ccn2[C@@H]1O[C@@H]2[C@@H](Oc3ccc4cc(Br)c(N)nc4c3)CC[C@]2(O)[C@H]1O
Q: Could you please sort these 4 entries by Vdu from high to low? Give the labels in the order specified.
A: II, IV, III, I

---

Assay: Solubility of the compound in FaSSIF at pH 7 at 200 uM incubated for 24 hrs by UV-vis detection based HPLC analysis
Format: physicochemical
measured-endpoint: solubility at 24 h, 200 µM (µM)

Lab book: solubility at 24 h, 200 µM of Cc1ncnc2c1ccn2[C@@H]1O[C@@H]2[C@H](Cc3ccc4ccc(N)nc4c3)CC[C@]2(O)[C@H]1O noted as 164

Lab book: solubility at 24 h, 200 µM of Cc1cc2ccc(C[C@@H]3CC[C@@]4(O)[C@@H]3O[C@@H](n3ccc5c(N)ncnc53)[C@@H]4O)cc2nc1N noted as 137

(A) Nc1nc2cc(C[C@@H]3CC[C@@]4(O)[C@@H]3C[C@@H](n3ccc5c(N)ncnc53)[C@@H]4O)ccc2cc1Br
(B) Nc1nc2cc(C[C@@H]3CC[C@@]4(O)[C@@H]3O[C@@H](n3ccc5c(N)ncnc53)[C@@H]4O)ccc2cc1Br
Q: # compare solubility at 24 h, 200 µM for A vs B ; return the one with the smaller value Identify your pick by its label.
A: A

(1) Cc1cn([C@@H]2C[C@@H]3[C@H](Cc4ccc5cc(F)c(N)nc5c4)CC[C@]3(O)[C@H]2O)c2ncnc(N)c12
(2) Cc1ncnc2c1ccn2[C@@H]1O[C@@H]2[C@@H](Oc3ccc4cc(Cl)c(N)nc4c3)CC[C@]2(O)[C@H]1O
Q: # compare solubility at 24 h, 200 µM for 1 vs 2 ; return the one with the smaller value Identify your pick by its label.
A: 2

---

Molecular target: Protein arginine N-methyltransferase 5 (Homo sapiens)
Sequence (O14744 whole entry): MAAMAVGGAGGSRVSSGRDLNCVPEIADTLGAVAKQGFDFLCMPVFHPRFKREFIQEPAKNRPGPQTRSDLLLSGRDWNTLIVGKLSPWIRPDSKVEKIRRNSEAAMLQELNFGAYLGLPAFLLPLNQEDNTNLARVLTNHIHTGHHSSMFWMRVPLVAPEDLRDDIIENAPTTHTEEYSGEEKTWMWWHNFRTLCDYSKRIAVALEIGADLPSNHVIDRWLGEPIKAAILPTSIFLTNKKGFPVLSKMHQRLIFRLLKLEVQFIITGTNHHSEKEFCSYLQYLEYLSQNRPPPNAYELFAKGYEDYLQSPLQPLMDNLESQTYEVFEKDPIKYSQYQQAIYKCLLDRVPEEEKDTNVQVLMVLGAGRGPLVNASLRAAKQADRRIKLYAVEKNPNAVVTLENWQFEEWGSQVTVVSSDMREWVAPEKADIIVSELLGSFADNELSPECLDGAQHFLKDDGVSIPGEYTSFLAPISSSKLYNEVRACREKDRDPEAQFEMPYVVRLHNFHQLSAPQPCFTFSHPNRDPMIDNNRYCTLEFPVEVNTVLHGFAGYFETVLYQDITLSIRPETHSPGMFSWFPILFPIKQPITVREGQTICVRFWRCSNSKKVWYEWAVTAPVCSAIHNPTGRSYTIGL
Experiment: Inhibition of PRMT5 (unknown origin) assessed as inhibition of symmetric dimethylation of arginine incubated for 3 days by fluorescence based cellular target engagement assay
pEC50: −log10 of the molar value.
measured-endpoint: pEC50

(P) Cc1ncnc2c1ccn2[C@@H]1O[C@@H]2[C@@H](Oc3ccc4cc(Cl)c(N)nc4c3)CC[C@]2(O)[C@H]1O
(Q) Nc1nc2cc(O[C@H]3CC[C@@]4(O)[C@@H]3O[C@@H](n3ccc5c(N)ncnc53)[C@@H]4O)ccc2cc1F
Q: For this pair, P and Q , which shows a numerically higher pEC50? Identify your pick by its label.
A: Q

---

Test: Unbound clearance in rat
Format: ADME
Details: in vivo
measured-endpoint: CL free (mL/min/kg)

(A) CNc1ncnc2c1ccn2[C@@H]1O[C@@H]2[C@@H](Oc3ccc4cc(Br)c(N)nc4c3)CC[C@]2(O)[C@H]1O
(B) Nc1nc2cc(O[C@H]3CC[C@@]4(O)[C@@H]3O[C@@H](n3ccc5c(N)ncnc53)[C@@H]4O)ccc2cc1Cl
Q: For this pair, A and B , which shows a numerically higher CL free? Identify your pick by its label.
A: A
(A: 3143 mL/min/kg, B: 412 mL/min/kg)

---

Experiment: Unbound volume of distribution in rat
Type: ADME
Conditions: in vivo
measured-endpoint: Vdu (L/kg)

Consider the reported Vdu for these compounds:
Lab book: Vdu of Cc1nc(N)c2ccn([C@@H]3C[C@@H]4[C@H](Cc5ccc6cc(F)c(N)nc6c5)CC[C@]4(O)[C@H]3O)c2n1 noted as 150

Lab book: Vdu of Nc1nc2cc(C[C@@H]3CC[C@@]4(O)[C@@H]3O[C@@H](n3ccc5c(N)ncnc53)[C@@H]4O)ccc2cc1Br noted as 82

(P) Cc1ncnc2c1ccn2[C@@H]1C[C@@H]2[C@H](Cc3ccc4cc(Cl)c(N)nc4c3)CC[C@]2(O)[C@H]1O
(Q) Cc1ncnc2c1ccn2[C@@H]1C[C@@H]2[C@H](Cc3ccc4cc(Br)c(N)nc4c3)CC[C@]2(O)[C@H]1O
Q: # compare Vdu for P vs Q ; return the one with the smaller value Identify your pick by its label.
A: P
(P: 83 L/kg, Q: 143 L/kg)

---

Test: Solubility of the compound in FaSSIF at pH 7 at 200 uM incubated for 24 hrs by UV-vis detection based HPLC analysis
Type: physicochemical
measured-endpoint: solubility at 24 h, 200 µM (µM)

Lab book: solubility at 24 h, 200 µM of Nc1nc2cc(C[C@@H]3CC[C@@]4(O)[C@@H]3O[C@@H](n3ccc5c(N)ncnc53)[C@@H]4O)cc(F)c2cc1F noted as 83

Lab book: solubility at 24 h, 200 µM of Cc1nc(N)c2ccn([C@@H]3C[C@@H]4[C@H](Cc5ccc6cc(F)c(N)nc6c5)CC[C@]4(O)[C@H]3O)c2n1 noted as 123

(I) Nc1nc2cc(C[C@@H]3CC[C@@]4(O)[C@@H]3C[C@@H](n3cc(F)c5c(N)ncnc53)[C@@H]4O)cc(F)c2cc1F
(II) Nc1nc2cc(C[C@@H]3CC[C@@]4(O)[C@@H]3O[C@@H](n3ccc5c(N)ncnc53)[C@@H]4O)ccc2cc1Cl
(III) Cc1ncnc2c1ccn2[C@@H]1C[C@@H]2[C@H](Cc3ccc4cc(F)c(N)nc4c3)CC[C@]2(O)[C@H]1O
(IV) Nc1nc2cc(C[C@@H]3CC[C@@]4(O)[C@@H]3O[C@@H](n3ccc5c(N)ncnc53)[C@@H]4O)ccc2cc1F
(V) Cc1ncnc2c1ccn2[C@@H]1C[C@@H]2[C@H](Cc3ccc4cc(Br)c(N)nc4c3)CC[C@]2(O)[C@H]1O
Q: Could you please sort these 5 entries by solubility at 24 h, 200 µM from high to low? Give the labels in the order specified.
A: IV, III, II, I, V
(IV: 142 µM, III: 94 µM, II: 60 µM, I: 25 µM, V: 14 µM)
